As a worked illustration, we turn to AC50 data collected for 5-hydroxytryptamine receptor 5A (Homo sapiens).
ATTRIBUTE_MEASURED: AC50

1. CN1C2CCCC1CC(NC(=O)c1nn(C)c3ccccc13)C2 (stereo not given) | > 10 µM
2. Cc1ccc(-c2ncc(Cl)cc2-c2ccc(S(C)(=O)=O)cc2)cn1 | > 10 µM
3. CC(NC(C)(C)C)C(=O)c1cccc(Cl)c1 (stereo not given) | > 10 µM
4. OCCOCCN1CCN(C(c2ccccc2)c2ccc(Cl)cc2)CC1 (stereo not given) [HYDROXYZINE] | 0.28 µM
5. CCOC(=O)[C@H](CCc1ccccc1)N[C@@H](C)C(=O)N1Cc2ccccc2C[C@H]1C(=O)O | > 10 µM

Data provenance is ChEMBL document CHEMBL5291721.
